Every entry's value here was drawn from PubChem BioAssay AID2685.

experiment: qHTS Assay for Lipid Storage Modulators in Drosophila S3 Cells; conditions: BODIPY lipid droplet fluorescence, 18-24 h, cells fed with added oleic acid; series mostly up to 46.1 µM
Out of some 320,000 compounds screened, about 2,100 (0.66%) were called active. About 53% were inconclusive and are not listed. Calls follow the shape of the dose curve; as a rule, active = well fitted inhibition curve with a large enough effect in the signal ratio, with a control signal flat (not every such curve was filed as active); inconclusive = small, poorly fitted or top-dose-only effect, or effect the other way, or a change in a side signal; inactive = flat fitted curve, though single readings scatter; the % refers to the signal ratio. For the sample, actives were picked, then their nearest neighbours and some compounds at random.
Your reply should match one of these outcome classes. 1.0 for active, 0.0 for inactive

Solved cases (5 shown):
1) Cc1ccccc1NC(=S)NC(C)CCc1ccccc1 (stereo unspecified) :: 0.0
2) CCOC(=O)C1CCN(c2ccc([N+](=O)[O-])cc2)CC1 :: 0.0
3) Cc1ccc(-c2nnc(SCC(=O)Nc3ccc(N4CCOCC4)cc3)o2)cc1 :: 0.0
4) COCc1cc(C)nc(SCC(=O)Nc2ccc3c(c2)OCCO3)c1C#N :: 0.0
5) CCOC(=O)C(=O)NC(C)CCc1ccccc1 (stereo unspecified) :: 0.0

Prompt: // return assay outcome for Cc1ccccc1NC(=O)C(=O)NC(C)CCc1ccccc1 (stereo unspecified)
Response: 1.0

Prompt: // return assay outcome for O=C1c2cccc3cccc(c23)C(=O)N1CC1CCN(S(=O)(=O)c2ccc(F)cc2)CC1
Response: 0.0

====

assay: qHTS Assay for Lipid Storage Modulators in Drosophila S3 Cells; settings: BODIPY lipid droplet fluorescence, 18-24 h, cells fed with added oleic acid; measured here: cell count max response;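 as to cell number change: cells counted by Cell Tracker Red CMTPX staining in the red channel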
Out of some 320,000 compounds screened, about 2,100 (0.66%) were called active. Inconclusive results (about 53%) are left out. The sample as a whole holds a higher share of actives than the screen did.
measure: cell number change (%)
// note: answer is a bare numeric in %

Some molecules with recorded cell number change:
1) Cc1ccc(-c2nn(CC(=O)O)c(=O)c3ccccc23)cc1 :: -4.34
2) CC(NS(=O)(=O)c1ccc(OCC(=O)NCc2cccnc2)cc1)c1ccccc1 (stereo unspecified) :: -6.31
3) COC(=O)c1ccc(N2C(=O)c3cc(N4CCOCC4)c([N+](=O)[O-])cc3C2=O)cc1 :: 0.29
4) Cc1ccccc1NC(=O)Cc1nnc(N)s1 :: -0.0956
5) CNc1oc(-c2ccc(F)cc2)nc1S(=O)(=O)c1ccccc1 :: 11.1

Now, please, on to the next molecule.
Prompt: Which cell number change is listed for O=C(NC1CC2CCCC(C1)N2C(=S)NCCc1ccccc1)C1CC1 (stereo unspecified) ?
Response: -26.1

====

assay: qHTS Assay for Lipid Storage Modulators in Drosophila S3 Cells; settings: BODIPY lipid droplet fluorescence, 18-24 h, cells fed with added oleic acid; measured here: cell count max response;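 as to cell number change: cells counted by Cell Tracker Red CMTPX staining in the red channel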
Among all 320,000 compounds or so, about 2,100 (0.66%) were called active. Another 53% or so got no clear call; they are omitted. The full list was thinned out, with actives kept by preference.
As shown below, each of these compounds has a reported cell number change value.
# unit: % | format: bare number

Example results:
1) CNc1ccccc1C(C)(C)c1cc(-c2cccc(Br)c2)no1 :: -5.11
2) Cc1ccc(S(=O)(=O)NNC2=NS(=O)(=O)c3ccccc32)c(C)c1 :: -0.377
3) O=C(/C=C/c1ccc(F)cc1)N1CCN(c2ncccn2)CC1 :: 20.7

Prompt: Request the reported cell number change associated with Cc1cc(C)cc(N(CCC(=O)Nc2nnc(C)s2)S(=O)(=O)c2ccc(Cl)cc2)c1
Response: -5.03

Prompt: Recorded cell number change of O=C(Oc1ccc(=O)n(-c2ccccc2)n1)c1cccc(Cl)c1 , please.
Response: -1.38

Prompt: Find the recorded cell number change belonging to Cc1cc(O)c(C(C)C)cc1NC1=NS(=O)(=O)c2ccccc21 and report it.
Response: -1.35

Prompt: Which value of cell number change has been reported for CN(Cc1ccc2c(c1)OCO2)C(=O)c1cc(-c2ccccc2)c(N2CCOCC2)s1 in the records?
Response: -5.64

Prompt: Any idea what its cell number change is? The compound is CCOC(=O)c1cc2sc(C)cc2n1CC(=O)NCCc1ccccc1
Response: 5.86

Prompt: Given Brc1cccc(-c2nnc(-c3ccccc3)o2)c1 , state its recorded cell number change.
Response: 1.68

Prompt: I have this compound here, OCC1(CCc2ccccc2)CCN(Cc2cnc(N3CCCC3)s2)CC1 , and I need its recorded cell number change.
Response: -1.4

Prompt: Reported cell number change, compound OCCN1CCN(CCSc2ccccc2)CC1 : ____
Response: 0.698

====

test: qHTS Assay for Lipid Storage Modulators in Drosophila S3 Cells; conditions: BODIPY lipid droplet fluorescence, 18-24 h, cells fed with added oleic acid; series mostly up to 46.1 µM
About 2,100 (0.66%) of roughly 320,000 compounds were called active. Not shown: some 53% with an inconclusive outcome. Calls follow the shape of the dose curve; as a rule, active = well fitted inhibition curve with a large enough effect in the signal ratio, with a control signal flat (not every such curve was filed as active); inconclusive = small, poorly fitted or top-dose-only effect, or effect the other way, or a change in a side signal; inactive = flat fitted curve, though single readings scatter; the % refers to the signal ratio. Many of the other results were omitted from the sample, so actives are more common in it than they were.
Answer with one of the outcomes given here: active, inactive

These recorded examples may help you get a feel for the data.
1. CCN(C(=O)CN1CCN(c2ccccc2)CC1)c1c(N)n(Cc2ccccc2)c(=O)[nH]c1=O :: active
2. CCN(C(=O)COC(=O)CCOc1ccccc1)c1c(N)n(Cc2ccccc2)c(=O)[nH]c1=O :: inactive
3. CCCN(C(=O)c1c(-c2ccccc2)noc1C)c1c(N)n(Cc2ccccc2)c(=O)[nH]c1=O :: active

Prompt: Field: outcome | Entry: N#Cc1ccccc1S(=O)(=O)N1CCN(C(=O)C2CCC2)CC1
Response: inactive

Prompt: Query: recorded result category for CCN(C(=O)CN1CCN(c2cccc(Cl)c2)CC1)c1c(N)n(Cc2ccccc2)c(=O)[nH]c1=O in this test
Response: inactive

====

test: qHTS Assay for Lipid Storage Modulators in Drosophila S3 Cells; details: BODIPY lipid droplet fluorescence, 18-24 h, cells fed with added oleic acid; measured here: cell count max response;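 as to cell number change: cells counted by Cell Tracker Red CMTPX staining in the red channel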
Among all 320,000 compounds or so, about 2,100 (0.66%) were called active. About 53% were inconclusive and are not listed. The sample holds actives, similar compounds and a random draw of the others, so the mix is not that of the screen.
Readings of cell number change for the listed compounds
Use % as the unit, but write only the number.

Prompt: # query: cell number change of entry Cc1nn(-c2ccccc2)c(Cl)c1/C=N/NC(=O)CNc1n[nH]c(=O)[nH]c1=O
Response: 11.6

Prompt: Give its cell number change value. Item: CCC(C)NC(=O)[C@H]1N2C(=O)c3ccccc3C2SC1(C)C (stereo not given in full)
Response: 25

Prompt: What cell number change value was documented for this compound, CC(C)C(NC(=O)c1ccccc1)C(=O)OCn1nnc2ccccc2c1=O (stereo not given) ?
Response: -15.7

Prompt: Requested read-out: cell number change. Entry: C[C@H](NC(=O)[C@H]1N2C(=O)c3ccccc3C2SC1(C)C)C(=O)N1CCCCC1 (stereo not given in full)
Response: -4.2

Prompt: Form field: reported cell number change of Cc1cc(C)c(O)c(-c2cc(C(=O)Nc3cccnc3)[nH]n2)c1
Response: -5.15

====

Assay: qHTS Assay for Lipid Storage Modulators in Drosophila S3 Cells
Conditions: BODIPY lipid droplet fluorescence, 18-24 h, cells fed with added oleic acid; series mostly up to 46.1 µM
From the text: NIH Molecular Libraries Probe Production Centers Network [MLPCN] NIH Chemical Genomics Center [NCGC] […] Triacsin C (Sigma-Aldrich T-4540), an inhibitor of long-chain fatty acyl CoA synthetase that blocks synthesis of triglycerides, was used as a positive control for lipid under-storage. […] Fluorescence was detected by excitation of the fluorophores with a 488-nm laser on an Acumen Explorer (TTP Lab Tech). […] Cells were detected using channel 3 (575-640 nm) with 5-um width and 100-um depth filters. […]
Among all 320,000 compounds or so, about 2,100 (0.66%) were called active. Inconclusive results (about 53%) are left out. Calls come from the whole dose curve; as a rule, active = well fitted inhibition curve with a large enough effect in the signal ratio, with a control signal flat (not every such curve was filed as active); inconclusive = small, poorly fitted or top-dose-only effect, or effect the other way, or a change in a side signal; inactive = flat fitted curve, though single readings scatter; the % refers to the signal ratio. This excerpt belongs to a sample that is enriched for actives.
Please answer using one outcome listed in Y (active), N (inactive)

1. CC12CCC(=O)N1C(C(=O)OCC(=O)Nc1cccc(S(=O)(=O)N3CCCCCC3)c1)CS2 (stereo not given) :: N

Prompt: Please state the recorded outcome for this compound: COc1cc([N+](=O)[O-])ccc1NC(=O)CC1SC(=Nc2ccc(F)cc2)N(CCC2=CCCCC2)C1=O (stereo not given)
Response: Y

Prompt: Which result was noted for this compound in the test: CCn1c2ccccc2c2cc(N=C3SC(CC(=O)Nc4ccccc4OC)C(=O)N3C)ccc21 (stereo not given)
Response: N

Prompt: Record request — test call for Cn1c(/C=C/c2ccc(Br)cc2)c([N+](=O)[O-])c(=O)n(C)c1=O
Response: Y

Prompt: Hi team, can someone confirm the assay call for CCOc1ccccc1NS(=O)(=O)c1ccc2c(c1)N(C)CCO2 ?
Response: Y

Prompt: State the result this test recorded for COc1ccc(C2C3=C(CC(C)(C)CC3=O)N(CC(=O)O)C3=C2C(=O)CC(C)(C)C3)cc1OC .
Response: N

Prompt: What outcome does the record of this test show for C[C@H](NC(=O)OCc1ccccc1)c1nnc([C@H](C)NC(=O)OCc2ccccc2)o1 ?
Response: N

Prompt: What did the test return for Cc1ccc(NC(=O)CSc2nnc(CNC(=O)c3ccco3)n2C)cc1 ?
Response: N

Prompt: Outcome logged for CCOc1ccccc1NS(=O)(=O)c1ccc2c(c1)n(C)c(=O)c(=O)n2C in this assay:
Response: N

Prompt: What call does the record list for COc1ccc(OC)c(NC(=O)CC2SC(=Nc3ccc(F)cc3)N(CCC3=CCCCC3)C2=O)c1 (stereo not given) ?
Response: N

Prompt: Hi, do you know how CC(C)(C)OC(=O)N1CCC(C(=O)O)CC1 came out in this test?
Response: N
